mTOR kinase (Homo sapiens, UniProt P42345) data, read-out pIC50
pIC50: −log10 of the molar value.

Reference set, count: 5
compound="Cc1noc(C)c1-c1cnc2c(N3CCOCC3)nc(-c3ccc(NC(=O)Nc4ccc(C(=O)N(C)C)cc4)cc3)nc2c1 [Example 120]" target_or_test_system="mTOR kinase (Homo sapiens, UniProt P42345)" reading="> 7.30"
compound="COc1ncccc1-c1ccc2c(N3CCOCC3)nc(-c3ccc(NC(=O)Nc4ccc(C(=O)N(C)C)cc4)cc3)nc2c1 [Example 163]" target_or_test_system="mTOR kinase (Homo sapiens, UniProt P42345)" reading="> 7.30"
compound="CC1CN(c2nc(-c3ccc(NC(=O)Nc4ccc(C(=O)N(C)C)cc4)cc3F)nc3cc(-c4cncnc4)ccc23)CCO1 (stereo not shown) [Example 254]" target_or_test_system="mTOR kinase (Homo sapiens, UniProt P42345)" reading="6.70 to 7.30"
compound="CN(C)C(=O)c1ccc(NC(=O)Nc2ccc(-c3nc(N4CCOCC4)c4ccc(-c5ccc(CO)o5)cc4n3)cc2)c(F)c1 [Example 228]" target_or_test_system="mTOR kinase (Homo sapiens, UniProt P42345)" reading="> 7.30"
compound="CC(=O)c1ccc(-c2ccc3c(N4CCOCC4)nc(-c4ccc(NC(=O)Nc5ccc(C(=O)N(C)C)cc5)cc4)nc3c2)o1 [Example 224]" target_or_test_system="mTOR kinase (Homo sapiens, UniProt P42345)" reading="> 7.30"

Query: Given O=C(Nc1ccc(C(=O)N2CCC(O)C2)cc1)Nc1ccc(-c2nc(N3CCOCC3)c3ccc(-c4cncnc4)cc3n2)cc1 (stereo not shown) [Example 189] , report its pIC50 on mTOR kinase (Homo sapiens, UniProt P42345).
Response: > 7.30

Query: Report pIC50 on mTOR kinase (Homo sapiens, UniProt P42345) for this entry: CN(C)C(=O)c1ccc(NC(=O)Nc2ccc(-c3nc(N4CCOCC4)c4ccc(-c5ccco5)cc4n3)cc2)cc1F [Example 265]
Response: 6.70 to 7.30

Query: Param request: pIC50 | system mTOR kinase (Homo sapiens, UniProt P42345) | item CN(C)C(=O)c1ccc(NC(=O)Nc2ccc(-c3nc(N4CCOCC4)c4ccc(-c5ccsc5)cc4n3)cc2)cc1 [Example 52]
Response: 6.70 to 7.30
